system: monoclonal antibody 13E3; assay: High-volume screen, fluorescent antibody competition assay (inhibition of binding of CS-045 bPE); design: species or system mouse; details: approximately 2 μg/ml final concentration; CS-045 bPE binding to 13E3
Quantity Kind: % inhibition in screen (%)

The following compounds have reported results that may help.
>  <Structure Smiles String>
O=c1[nH]c(=O)n(Cc2ccc(OCCc3coc(-c4ccccc4)n3)cc2)o1

>  <% inhibition in screen (%)>
88

$$$$
>  <Structure Smiles String>
CCCCCC(=O)c1ccc(OC(C)(C)C(=O)O)cc1

>  <% inhibition in screen (%)>
61

$$$$
>  <Structure Smiles String>
O=C(Nc1ccc(Br)c(Cl)c1)C(F)(C(F)(F)F)C(F)(F)F

>  <% inhibition in screen (%)>
65

$$$$

(I) N#Cc1cc(F)cc(F)c1NC(=O)c1ccc(Cl)c(Cl)c1
(II) O=C(O)CC(=O)Nc1nc(-c2ccc(Cl)cc2)cs1
Determine, for I and II , which has the greater value of % inhibition in screen. Write the label of whichever entry you select.
II

Reference source: patent US5466610A
